target under test: peripheral anionic site (PAS) of EeAChE (Electrophorus electricus)
Construct: from human erythrocyte and E. electricus (EeAChE) (type VI-S); purchased Sigma-Aldrich (Germany) type VI-S; host or cells: Electrophorus electricus tissue
Sequence (O42275 24-633): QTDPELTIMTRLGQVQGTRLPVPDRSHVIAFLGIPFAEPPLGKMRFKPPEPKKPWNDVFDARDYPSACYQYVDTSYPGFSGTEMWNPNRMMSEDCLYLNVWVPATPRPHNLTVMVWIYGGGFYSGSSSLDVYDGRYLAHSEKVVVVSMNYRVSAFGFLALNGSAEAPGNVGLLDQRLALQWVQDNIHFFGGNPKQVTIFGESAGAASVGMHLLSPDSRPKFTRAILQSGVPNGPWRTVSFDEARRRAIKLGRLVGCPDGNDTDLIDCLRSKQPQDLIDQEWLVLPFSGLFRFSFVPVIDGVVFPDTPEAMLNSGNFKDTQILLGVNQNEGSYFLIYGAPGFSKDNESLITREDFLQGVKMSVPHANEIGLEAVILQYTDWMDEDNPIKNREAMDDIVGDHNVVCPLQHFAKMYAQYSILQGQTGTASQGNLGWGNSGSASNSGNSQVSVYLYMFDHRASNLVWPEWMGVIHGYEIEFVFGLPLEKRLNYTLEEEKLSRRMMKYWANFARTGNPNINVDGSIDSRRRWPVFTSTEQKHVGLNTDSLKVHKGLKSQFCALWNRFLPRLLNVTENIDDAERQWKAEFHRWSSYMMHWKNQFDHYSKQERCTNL
Assay type: binding
settings: compound 3 µM; EeAChE 7 μM, propidium iodide 8 μM
measure name: % Displacement of propidium iodide, 3 µM (%)
Express your answer in %, writing the number without its unit.

Prompt: Note down % Displacement of propidium iodide, 3 µM recorded for CCCN1CCc2c(c3cc(C)ccc3n2CCC(=O)N2c3ccc(N(C)C)cc3Sc3cc(N(C)C)ccc32)C1.Cl.Cl.Cl [Compound 5]
Response: 14.2

Prompt: Note down % Displacement of propidium iodide, 3 µM recorded for CCN1CCc2c(c3cc(C)ccc3n2CCC(=O)N2c3ccc(N(C)C)cc3Sc3cc(N(C)C)ccc32)C1.Cl.Cl.Cl [Compound 4]
Response: 11.8

Prompt: Note down % Displacement of propidium iodide, 3 µM recorded for Cc1ccc2c(c1)c1c(n2CCc2ccc(C)nc2)CCN(C)C1 [Dimebon, reference compound]
Response: 2.8

Prompt: Note down % Displacement of propidium iodide, 3 µM recorded for Cc1ccc2c(c1)c1c(n2CCC(=O)N2c3ccc(N(C)C)cc3Sc3cc(N(C)C)ccc32)CCN(C)C1 [Compound 3]
Response: 8.1
